The following compounds have recorded AC50 on UniProt:P07550.
Sequence (P07550 whole entry): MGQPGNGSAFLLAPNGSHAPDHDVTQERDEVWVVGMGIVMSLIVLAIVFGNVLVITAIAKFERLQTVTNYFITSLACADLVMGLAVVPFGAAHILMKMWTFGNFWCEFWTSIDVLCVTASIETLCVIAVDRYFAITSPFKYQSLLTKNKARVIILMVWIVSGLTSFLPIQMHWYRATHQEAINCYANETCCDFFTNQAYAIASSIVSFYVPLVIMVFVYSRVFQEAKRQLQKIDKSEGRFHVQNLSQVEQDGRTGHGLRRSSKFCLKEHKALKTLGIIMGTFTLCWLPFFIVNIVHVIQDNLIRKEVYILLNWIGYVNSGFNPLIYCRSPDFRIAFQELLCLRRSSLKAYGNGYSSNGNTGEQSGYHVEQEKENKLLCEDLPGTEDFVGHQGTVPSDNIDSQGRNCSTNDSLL

Dear colleague, please send me the reported AC50 for CCC(=O)O[C@](Cc1ccccc1)(c1ccccc1)[C@H](C)CN(C)C when you can.
> 10 µM

Return the recorded AC50 value; entry: Cc1ccc(C)c(OCCCC(C)(C)C(=O)O)c1
> 10 µM

Give recorded AC50. O=C(O)c1cccnc1Nc1cccc(C(F)(F)F)c1
> 10 µM

Could you please provide reported AC50 for CNC(=C[N+](=O)[O-])NCCSCc1csc(CN(C)C)n1 ? Thanks!
> 10 µM

Read off the recorded AC50 for O=C(O)CCNC(=O)c1ccc(/N=N/c2ccc(O)c(C(=O)O)c2)cc1 [BALSALAZIDE]
> 30 µM

Give the measured AC50 for C[C@]12C=CC(=O)C=C1CC[C@@H]1[C@@H]2CC[C@]2(C)OC(=O)CC[C@@H]12
> 10 µM

Indicate the recorded AC50 value for this compound: CC(C(=O)O)c1ccc2c(c1)CC(=O)c1ccccc1S2 (stereo not drawn)
> 30 µM

Look up and report measured AC50 for this entry: C[C@@H]1C[C@H]2[C@@H]3C[C@H](F)C4=CC(=O)C=C[C@]4(C)[C@@]3(F)[C@@H](O)C[C@]2(C)[C@@]1(OC(=O)c1ccco1)C(=O)SCF [FLUTICASONE FUROATE]
> 10 µM

Check the records and state AC50 for O=C1Nc2ccc(Cl)cc2C(c2ccccc2Cl)=NC1O (stereo not drawn)
> 10 µM

Please supply the value of reported AC50 for the item CC1=C(C(=O)OC(C)C)C(c2cccc([N+](=O)[O-])c2)C(C(=O)OC2CN(C(c3ccccc3)c3ccccc3)C2)=C(N)N1 (stereo not drawn)
> 30 µM

Hello, please tell me recorded AC50 for this one: CC1=C(/C=C/C(C)=C/C=C/C(C)=C/CO)C(C)(C)CCC1
> 10 µM

Query AC50 for NNC(=O)c1ccncc1
> 30 µM

Return AC50 (reported value) for this compound: NC(=O)NC(=O)Cc1ccccc1 [PHENACEMIDE]
> 10 µM

Please look at this compound and report its AC50: CCOc1nc2cccc(C(=O)O)c2n1Cc1ccc(-c2ccccc2-c2nnn[nH]2)cc1
> 10 µM

Identify the reported AC50 for the following entry. Fc1ccc([C@@H]2CCNC[C@H]2COc2ccc3c(c2)OCO3)cc1
9.5 µM

Return value of AC50 for input CN(C)CCCN1c2ccccc2CCc2ccccc21 , no commentary.
> 10 µM

Complete the entry with AC50 for NS(=O)(=O)c1cc2c(cc1Cl)N=C(CSCc1ccccc1)NS2(=O)=O [BENZTHIAZIDE]
> 10 µM

Return AC50 for the following compound: O=C1c2ccccc2C(=O)C1c1ccccc1
> 10 µM

Give the measured AC50 for COc1cc(C(C)=O)ccc1OCCCN1CCC(c2noc3cc(F)ccc23)CC1
> 10 µM

Answer with reported AC50 of O=C(O)COCCN1CCN(C(c2ccccc2)c2ccc(Cl)cc2)CC1 (stereo not drawn)
> 10 µM

Note AC50 for the compound shown: COc1cc(N)c(Cl)cc1C(=O)NC1CCN(CCCOc2ccc(F)cc2)CC1OC (stereo not drawn) [CISAPRIDE]
> 10 µM

Note AC50 for the compound shown: CCOC(=O)C1=C(C)NC(C)=C(C(=O)OCC)C1c1ccccc1/C=C/C(=O)OC(C)(C)C
> 30 µM

Find the measured AC50 of CCC(NC(C)C)C(O)c1ccc(O)c2[nH]c(=O)ccc12 (stereo not drawn) and report it.
0.2 µM
